Biological target: T1, Nrd1 307-491 F378A (Saccharomyces cerevisiae, UniProt P53617 307-491, F378A)
T1 sequence: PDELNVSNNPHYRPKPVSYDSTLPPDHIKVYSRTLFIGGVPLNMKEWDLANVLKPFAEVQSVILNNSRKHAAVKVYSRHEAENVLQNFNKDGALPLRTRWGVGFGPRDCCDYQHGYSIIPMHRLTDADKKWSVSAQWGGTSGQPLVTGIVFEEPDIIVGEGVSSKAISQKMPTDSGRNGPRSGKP
Experiment: fluorescence anisotropy; FA: 10 nM RNA, 50 mM sodium phosphate pH 8, 150 mM NaCl, 10 mM beta-mercaptoethanol, 20 C (protein stock in 300 mM NaCl); NMR: same buffer with 300 mM NaCl, 20
Conditions: protein: recombinant; tags: C-terminal His6; label: 5' fluorescein or TAMRA (FA); unlabeled (NMR)

binder	Kd
GCGGGGC (ssRNA)	73.4 µM

This collection of values is drawn from paper PMC4081072.
